B1: ZNF8 (parent)
chain: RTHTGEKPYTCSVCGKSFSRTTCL

Variants of: B1
METHOD: protein stability index of a GFP-peptide fusion (GPS, HEK-293T) (PSI 1-6); higher = more stable;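 also: lentivirally expressed fusions sorted by FACS into six bins by GFP to DsRed ratio, PSI derived from sequencing read proportions per bin multiplied by bin number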
REPORTED_CONDITIONS: c terminus: a fixed tail appended
MEASURE_NAME: protein stability index
// response body must contain only the number

The reported protein stability index of the variant `R20I` was 1.75

The reported protein stability index of the variant `H3I` was 2.21

The reported protein stability index of the variant `E6P` was 2.11

The reported protein stability index of the variant `K16S` was 1.75

The reported protein stability index of the variant `C14M` was 2.88

The reported protein stability index of the variant `H3F` was 2.08

The reported protein stability index of the variant `S12W` was 2.17

The reported protein stability index of the variant `C23E` was 3

The reported protein stability index of the variant `T10W` was 1.75

The reported protein stability index of the variant `G15T` was 1.65

The reported protein stability index of the variant `Y9D` was 2.78

The reported protein stability index of the variant `T2G` was 2.52

The reported protein stability index of the variant `L24M` was 2.87

The reported protein stability index of the variant `S19M` was 2.5

The reported protein stability index of the variant `S19Q` was 2.65

The reported protein stability index of the variant `E6N` was 1.96

The reported protein stability index of the variant `C23M` was 2.19

The reported protein stability index of the variant `T10E` was 2.39

The reported protein stability index of the variant `H3T` was 2.44

The reported protein stability index of the variant `C11F` was 2.23

The reported protein stability index of the variant `C11I` was 2.01

The reported protein stability index of the variant `K16L` was 2.09

The reported protein stability index of the variant `T22V` was 2.16

The reported protein stability index of the variant `F18N` was 2.53

The reported protein stability index of the variant `P8A` was 3.27

The reported protein stability index of the variant `C23Q` was 2.24

The reported protein stability index of the variant `K16G` was 2.41

The reported protein stability index of the variant `F18P` was 2.01

The reported protein stability index of the variant `Y9Q` was 2.31

The reported protein stability index of the variant `R1E` was 3.13

The reported protein stability index of the variant `C14V` was 3.13

The reported protein stability index of the variant `R20S` was 2.17

The reported protein stability index of the variant `H3W` was 1.82

The reported protein stability index of the variant `S19L` was 2.51

The reported protein stability index of the variant `G5D` was 2.62

The reported protein stability index of the variant `T21S` was 2.16

The reported protein stability index of the variant `S17K` was 2.87

The reported protein stability index of the variant `V13H` was 2.61

The reported protein stability index of the variant `S17C` was 3.72

The reported protein stability index of the variant `L24A` was 2.56

The reported protein stability index of the variant `T10V` was 2.72

The reported protein stability index of the variant `S17V` was 2.67

The reported protein stability index of the variant `G5T` was 2.4

The reported protein stability index of the variant `G15H` was 1.81

The reported protein stability index of the variant `V13Y` was 2.43

The reported protein stability index of the variant `V13P` was 1.97
